read-out: Plasminogen activator inhibitor-1 (PAI1), SERPINE1 (gene 5054); experiment: BSK_hDFCGF_PAI1: BioMAP Diversity Plus: hDFCGF Assay for Plasminogen activator inhibitor-1 (PAI1) Biomarker Activity (AID 2283066); details: primary human foreskin fibroblasts; actives raise or lower the signal
The source made the active and inactive calls. How the source made its calls: active means hit-call score of the fitted dose curve at least 0.9, where 1 is the maximum; inactive means score below 0.9.
Outcomes: class 1 (active), class 0 (inactive)

{"columns": ["Compound", "Class Label"],
 "data": [
  ["CO/N=C(/C1=NOCCO1)c1ccccc1Oc1ncnc(Oc2ccccc2Cl)c1F", "class 0"],
  ["CC(C)(C)C(=O)C(Oc1ccc(Cl)cc1)n1cncn1 (stereo unspecified)", "class 0"],
  ["Clc1cccc(C(Cl)(Cl)Cl)n1", "class 0"],
  ["Clc1nc(Cl)nc(Nc2ccccc2Cl)n1", "class 1"],
  ["COP(=O)(OC)O/C(C)=C/C(=O)N(C)C", "class 0"],
  ["OC(c1ccc(Cl)cc1)(c1ccc(Cl)cc1)C(Cl)(Cl)Cl", "class 1"],
  ["CCCC(=NOCC)C1=C(O)CC(CC(C)SCC)CC1=O (stereo unspecified)", "class 0"],
  ["CC1(C)C(C=C(Cl)Cl)C1C(=O)OC(C#N)c1cccc(Oc2ccccc2)c1 (stereo unspecified)", "class 0"],
  ["CCCCOCN(C(=O)CCl)c1c(CC)cccc1CC", "class 1"],
  ["CCCCC(C#N)(Cn1cncn1)c1ccc(Cl)cc1 (stereo unspecified)", "class 1"],
  ["CCCCC(O)(Cn1cncn1)c1ccc(Cl)cc1Cl (stereo unspecified)", "class 1"]
]}

Numbers sourced from PubChem BioAssay (EPA / NIEHS).
